studyTarget: SST2 (Homo sapiens)
Construct: host or cells: PathHunter CHO-K1 SST2 cells
Sequence (P30874 whole entry): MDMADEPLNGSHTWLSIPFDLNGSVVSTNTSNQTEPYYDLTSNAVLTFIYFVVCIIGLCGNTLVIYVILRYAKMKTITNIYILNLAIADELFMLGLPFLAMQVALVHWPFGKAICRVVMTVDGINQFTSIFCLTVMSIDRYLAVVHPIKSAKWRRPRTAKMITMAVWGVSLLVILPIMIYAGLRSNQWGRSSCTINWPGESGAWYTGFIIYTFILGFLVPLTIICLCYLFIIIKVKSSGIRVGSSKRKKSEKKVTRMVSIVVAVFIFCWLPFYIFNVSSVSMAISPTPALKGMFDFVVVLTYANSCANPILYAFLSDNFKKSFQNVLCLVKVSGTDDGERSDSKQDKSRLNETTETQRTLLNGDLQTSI
experimentNotes: PathHunter CHO-K1 SST2 internalization assay
Type: cell-based
conditionSet: PathHunter CHO-K1 SST2, 90 min; read-out: Internalization EC50
Starred links: 1 amine or outer side, 2 acyl side, 3 side chain; linkers in the order of their positions; H or OH if unused. Non-standard residues stand in square brackets, D forms with d. Residues, ends and D or L forms follow the SMILES beside them. *: point of attachment. X1 = Cc1cc(F)cc(-c2cnc(NCCNC(=O)CCOCCC(=O)*)c(-c3nc4ccc(Cl)cc4[nH]3)c2N2CCC(N)CC2)c1; Dolaproine = CO[C@@H]([C@@H]1CCCN1)[C@@H](C)C(=O)O; Dil = CC[C@H](C)[C@H](NC)[C@@H](CC(=O)O)OC; PABC = O=C(OCc1ccc(N[*:1])cc1)[*:2]; X2 = C[C@@H](N*)[C@@H](O)c1ccccc1; Cit = NC(=O)NCCC[C@H](N)C(=O)O; NMeV = CN[C@H](C(=O)O)C(C)C
resultType: EC50 (nM)
One number for each entry, in nM.

1. CC[C@H](C)[C@@H]([C@@H](CC(=O)N1CCC[C@H]1[C@H](OC)[C@@H](C)C(=O)N[C@H](C)[C@@H](O)c1ccccc1)OC)N(C)C(=O)[C@@H](NC(=O)[C@H](C(C)C)N(C)C(=O)OCc1ccc(NC(=O)[C@H](CCCNC(N)=O)NC(=O)[C@@H](NC(=O)[C@@H](CCC(=O)O)NC(=O)[C@@H](CCC(=O)O)NC(=O)CCOCCC(=O)NCCNc2ncc(-c3cc(C)cc(F)c3)c(N3CCC(N)CC3)c2-c2nc3ccc(Cl)cc3[nH]2)C(C)C)cc1)C(C)C [Compound 103] (X1-[dE][dE]V[Cit][PABC][NMeV]V[Dil][Dolaproine]-X2) : 24
2. COc1cc2cc(c1Cl)N(C)C(=O)C[C@H](OC(=O)[C@@H](C)N(C)C(=O)CCSSCCOCCOCCOCCC(=O)NCCNc1ncc(-c3cc(C)cc(F)c3)c(N3CCC(N)CC3)c1-c1nc3ccc(Cl)cc3[nH]1)[C@]1(C)OC1[C@@H](C)C1C[C@@](O)(NC(=O)O1)[C@H](OC)/C=C/C=C(\C)C2 (some centres unmarked) : 7.1

Required: EC50, one value per compound below.
1. CC[C@H](C)[C@@H]([C@@H](CC(=O)N1CCC[C@H]1[C@H](OC)[C@@H](C)C(=O)N[C@H](C)[C@@H](O)c1ccccc1)OC)N(C)C(=O)[C@@H](NC(=O)[C@H](C(C)C)N(C)C(=O)OCc1ccc(NC(=O)[C@H](C)NC(=O)[C@@H](NC(=O)CCNCCC(=O)NCCNc2ncc(-c3cc(C)cc(F)c3)c(N3CCC(N)CC3)c2-c2nc3ccc(Cl)cc3[nH]2)C(C)C)c(O[C@@H]2O[C@H](C(=O)O)[C@@H](O)[C@H](O)[C@H]2O)c1)C(C)C
2. CC[C@H](C)[C@@H]([C@@H](CC(=O)N1CCC[C@H]1[C@H](OC)[C@@H](C)C(=O)N[C@H](C)[C@@H](O)c1ccccc1)OC)N(C)C(=O)[C@@H](NC(=O)[C@H](C(C)C)N(C)C(=O)OCc1ccc(NC(=O)[C@H](CCCNC(N)=O)NC(=O)[C@@H](NC(=O)CCOCCOCCOCCOCCC(=O)NCCNc2ncc(-c3cc(C)cc(F)c3)c(N3CCC(N)CC3)c2-c2nc3ccc(Cl)cc3[nH]2)C(C)C)cc1C(=O)NCC(N)=O)C(C)C
3. CC[C@H](C)[C@@H]([C@@H](CC(=O)N1CCC[C@H]1[C@H](OC)[C@@H](C)C(=O)N[C@H](C)[C@@H](O)c1ccccc1)OC)N(C)C(=O)[C@@H](NC(=O)[C@H](C(C)C)N(C)C(=O)OCc1ccc(NC(=O)[C@H](CCCNC(N)=O)NC(=O)[C@@H](NC(=O)CCOCCNC(=O)CN2CCN(CC(=O)O)CCN(CC(=O)NCCOCCOCCOCCOCCC(=O)NCCNc3ncc(-c4cc(C)cc(F)c4)c(N4CCC(N)CC4)c3-c3nc4ccc(Cl)cc4[nH]3)CC2)C(C)C)cc1)C(C)C

Found:
29
5.6
18.1
